Catalogue of molecules with associated Control current
biological target: Calcium-activated potassium channel subunit alpha-1 (Homo sapiens) (UniProt Q12791); assay: Maxi-K opening activity on cloned human (hSlo) large- conductance (BK) Ca(2+)-activated K+ channel expressed in Xenopus laevis oocytes at concentration of 20 uM; format: functional, cell-based; conditions: Oocyte
Sequence (Q12791 whole entry): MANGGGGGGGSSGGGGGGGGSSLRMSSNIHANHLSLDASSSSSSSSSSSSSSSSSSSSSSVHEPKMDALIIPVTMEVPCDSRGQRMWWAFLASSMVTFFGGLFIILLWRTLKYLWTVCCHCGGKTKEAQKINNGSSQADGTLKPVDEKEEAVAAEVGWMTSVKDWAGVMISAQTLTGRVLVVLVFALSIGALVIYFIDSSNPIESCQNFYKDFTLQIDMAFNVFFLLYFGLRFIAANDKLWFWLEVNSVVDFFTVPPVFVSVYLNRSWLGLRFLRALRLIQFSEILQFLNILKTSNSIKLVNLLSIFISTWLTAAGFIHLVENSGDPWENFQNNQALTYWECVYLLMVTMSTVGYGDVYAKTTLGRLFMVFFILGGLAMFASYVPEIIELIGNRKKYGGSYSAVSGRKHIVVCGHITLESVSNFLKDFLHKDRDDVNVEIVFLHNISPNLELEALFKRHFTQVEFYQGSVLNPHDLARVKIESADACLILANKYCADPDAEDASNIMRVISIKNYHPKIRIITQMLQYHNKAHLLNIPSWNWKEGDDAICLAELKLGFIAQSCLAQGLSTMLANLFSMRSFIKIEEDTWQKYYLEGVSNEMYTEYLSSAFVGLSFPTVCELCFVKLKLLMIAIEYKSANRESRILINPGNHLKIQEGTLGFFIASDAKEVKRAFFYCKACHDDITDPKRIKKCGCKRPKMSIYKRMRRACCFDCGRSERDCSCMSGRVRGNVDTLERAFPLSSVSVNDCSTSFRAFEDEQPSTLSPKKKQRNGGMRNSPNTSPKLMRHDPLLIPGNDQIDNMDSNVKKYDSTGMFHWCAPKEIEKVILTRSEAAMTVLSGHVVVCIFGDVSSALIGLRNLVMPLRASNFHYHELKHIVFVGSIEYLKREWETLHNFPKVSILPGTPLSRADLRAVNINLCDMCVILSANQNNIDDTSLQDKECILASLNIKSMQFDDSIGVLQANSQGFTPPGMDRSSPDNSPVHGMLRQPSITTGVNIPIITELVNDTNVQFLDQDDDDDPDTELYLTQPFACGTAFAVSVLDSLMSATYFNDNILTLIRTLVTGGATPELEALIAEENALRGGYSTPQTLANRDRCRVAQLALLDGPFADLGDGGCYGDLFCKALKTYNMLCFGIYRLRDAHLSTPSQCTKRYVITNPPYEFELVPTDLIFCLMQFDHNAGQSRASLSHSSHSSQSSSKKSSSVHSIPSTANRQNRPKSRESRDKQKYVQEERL
measured.quantity: Control current

                                  cpd_smiles  reported_measurement
 0               Oc1c(Cl)cccc1Cc1cccc(Cl)c1O                 95.9%
 1  O=c1[nH]c2cc(C(F)(F)F)ccc2n1-c1cc(Cl)ccc1O                  132%
 2                 Oc1ccc(F)cc1Sc1cc(F)ccc1O                 98.8%
 3  Oc1c(Cl)cc(Cl)c(Cl)c1Cc1c(O)c(Cl)cc(Cl)c1Cl                  237%
 4  CN(C)Cc1cc(Cl)cc(Cc2cc(Cl)cc(CN(C)C)c2O)c1O                 94.7%
 5         O=C(Nc1cc(Cl)ccc1O)Nc1cc(Cl)ccc1O                  150%
 6       Oc1c(Cl)cc(Cl)cc1Cc1cc(Cl)cc(Cl)c1O                  245%
 7               Oc1ccc(Br)cc1-c1cc(Br)ccc1O                   97%
 8  O=C(Nc1cc(Cl)cc(Cl)c1O)Nc1cc(Cl)cc(Cl)c1O                  196%
 9           CCCc1ccc(O)c(-c2cc(CCC)ccc2O)c1                 95.9%
10                 Oc1ccc(F)cc1Cc1cc(F)ccc1O                 83.2%
11               Oc1ccc(Cl)cc1Cc1cc(Cl)ccc1O                 74.3%
